Target system: Mu-type opioid receptor (Rattus norvegicus, UniProt P33535)
Sequence (P33535 whole entry): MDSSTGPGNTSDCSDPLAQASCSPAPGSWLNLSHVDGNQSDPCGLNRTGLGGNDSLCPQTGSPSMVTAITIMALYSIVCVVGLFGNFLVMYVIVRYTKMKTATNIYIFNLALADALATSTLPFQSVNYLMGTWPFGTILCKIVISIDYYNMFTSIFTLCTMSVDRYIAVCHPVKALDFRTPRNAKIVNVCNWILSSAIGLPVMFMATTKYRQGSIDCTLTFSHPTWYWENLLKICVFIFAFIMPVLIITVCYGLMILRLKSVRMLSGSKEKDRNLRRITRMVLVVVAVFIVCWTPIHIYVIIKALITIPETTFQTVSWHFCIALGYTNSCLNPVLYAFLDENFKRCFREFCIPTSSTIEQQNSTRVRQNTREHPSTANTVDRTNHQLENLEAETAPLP
Test details: Inhibition of binding of [3H]-naloxone to Opioid receptor mu 1 of rat brain membranes
Endpoint name: IC50 (nM)

INSERT INTO measurements (compound, result) VALUES
  ('C[C@@H](O)[C@H](NC(=O)[C@H]1NC(=O)[C@H]([C@@H](C)O)NC(=O)[C@H](CCCCN)NC(=O)[C@@H](Cc2c[nH]c3ccccc23)NC(=O)[C@H](Cc2ccc(O)cc2)NC(=O)[C@@H](NC(=O)[C@H](N)Cc2ccccc2)CSSC1(C)C)C(N)=O', 3.7),
  ('CC(C)[C@@H]1NC(=O)[C@H](CCCCN)NC(=O)[C@@H](Cc2c[nH]c3ccccc23)NC(=O)[C@H](Cc2ccc(O)cc2)NC(=O)[C@@H](NC(=O)[C@H](N)Cc2ccccc2)CSSC(C)(C)[C@@H](C(=O)NC(C(N)=O)[C@@H](C)O)NC1=O (stereo in doubt)', 5.5),
  ('C[C@@H](O)[C@H](NC(=O)[C@H]1NC(=O)[C@H]([C@@H](C)O)NC(=O)[C@H](CCCN=C(N)N)NC(=O)[C@@H](Cc2c[nH]c3ccccc23)NC(=O)[C@H](Cc2ccc(O)cc2)NC(=O)[C@@H](NC(=O)[C@H](N)Cc2ccccc2)CSSC1(C)C)C(N)=O', 3.5),
  ('C[C@@H](O)[C@H](NC(=O)[C@H]1NC(=O)[C@H]([C@@H](C)O)NC(=O)[C@H](CCCCN)NC(=O)[C@H](Cc2c[nH]c3ccccc23)NC(=O)[C@H](Cc2ccc(O)cc2)NC(=O)[C@@H](NC(=O)[C@H](N)Cc2ccccc2)CSSC1(C)C)C(N)=O', 1350),
  ('C[C@@H](O)[C@H](NC(=O)[C@@H]1CSSC(C)(C)[C@H](NC(=O)[C@H](N)c2ccccc2)C(=O)N[C@@H](Cc2ccccc2)C(=O)N[C@H](Cc2c[nH]c3ccccc23)C(=O)N[C@@H](CCCCN)C(=O)N[C@@H]([C@@H](C)O)C(=O)N1)C(=O)O', 2100),
  ('CCCC[C@@H]1NC(=O)[C@@H](Cc2c[nH]c3ccccc23)NC(=O)[C@H](Cc2ccc(O)cc2)NC(=O)[C@@H](NC(=O)[C@H](N)Cc2ccccc2)CSSC(C)(C)[C@@H](C(=O)N[C@H](C(N)=O)[C@@H](C)O)NC(=O)[C@H]([C@@H](C)O)NC1=O', 9.6),
  ('C[C@@H](O)[C@H](NC(=O)[C@@H]1CSSC[C@H](NC(=O)[C@H](N)Cc2ccc(O)cc2)C(=O)N[C@@H](Cc2ccc(O)cc2)C(=O)N[C@H](Cc2c[nH]c3ccccc23)C(=O)N[C@@H](CCCCN)C(=O)N[C@@H]([C@@H](C)O)C(=O)N1)C(=O)O', 9100),
  ('C[C@@H](O)[C@H](NC(=O)[C@H]1NC(=O)[C@H]([C@@H](C)O)NC(=O)[C@H](CCCCN)NC(=O)[C@@H](Cc2c[nH]c3ccccc23)NC(=O)[C@H](Cc2ccc(O)cc2)NC(=O)[C@@H](NC(=O)[C@H](N)c2ccccc2)CSSC1(C)C)C(N)=O', 350),
  ('C[C@@H](O)[C@H](NC(=O)[C@H]1NC(=O)CNC(=O)[C@H](CCCCN)NC(=O)[C@@H](Cc2c[nH]c3ccccc23)NC(=O)[C@H](Cc2ccc(O)cc2)NC(=O)[C@@H](NC(=O)[C@H](N)Cc2ccccc2)CSSC1(C)C)C(N)=O', 539);
